# testTarget: T1, hPDGFRb.mmh (human, UniProt P09619 33-531)
# T1 construct: Soluble monomeric construct; also called soluble human PDGFR-beta.mmh
# T1 sequence (P09619 other isoform, or with tags, fused parts or gaps): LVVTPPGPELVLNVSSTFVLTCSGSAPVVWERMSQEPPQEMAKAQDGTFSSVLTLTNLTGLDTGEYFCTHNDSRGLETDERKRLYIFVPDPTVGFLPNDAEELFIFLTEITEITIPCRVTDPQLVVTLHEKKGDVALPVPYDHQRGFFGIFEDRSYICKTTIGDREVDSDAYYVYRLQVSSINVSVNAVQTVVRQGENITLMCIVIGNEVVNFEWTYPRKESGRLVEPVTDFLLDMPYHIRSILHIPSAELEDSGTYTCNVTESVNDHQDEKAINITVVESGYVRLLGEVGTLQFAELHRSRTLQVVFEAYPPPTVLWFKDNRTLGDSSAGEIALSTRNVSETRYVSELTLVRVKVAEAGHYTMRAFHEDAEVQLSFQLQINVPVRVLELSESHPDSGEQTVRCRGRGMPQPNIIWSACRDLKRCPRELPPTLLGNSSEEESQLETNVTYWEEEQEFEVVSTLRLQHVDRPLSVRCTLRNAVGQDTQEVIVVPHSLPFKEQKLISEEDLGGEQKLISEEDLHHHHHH
# assayExplanation: blocking ELISA, biot-hPDGFRb.mmh to coated PDGF-BB
# Description: The equilibrated PDGFR-beta/antibody solutions were added to ligand-coated plates, allowed to incubate for 1 hr, and washed. Levels of bound biot-hPDGFR-beta.mmh were detected using HRP conjugated streptavidin. Data were analyzed using Prism software and IC₅₀ values were calculated as the amount of antibody required to achieve 50% reduction of hPDGFR-beta-mmh bound to ligand. Maximum blocking values were also calculated and reflect the ability of the antibody to block relative to baseline. […]
metric: pIC50
Give bare numbers, as −log10 of the molar value.

{"binder": "H4H3374N (antibody, human IgG4, V domains shown, human IgG4 Fc (H4H prefix)) VH: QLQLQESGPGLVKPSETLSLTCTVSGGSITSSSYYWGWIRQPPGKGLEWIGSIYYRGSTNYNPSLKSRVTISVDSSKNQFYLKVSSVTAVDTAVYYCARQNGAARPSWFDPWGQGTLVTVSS VL: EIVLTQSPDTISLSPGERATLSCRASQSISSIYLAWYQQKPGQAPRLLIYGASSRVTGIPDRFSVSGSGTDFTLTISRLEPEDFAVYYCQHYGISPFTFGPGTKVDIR", "pIC50": 9.92}
{"binder": "H1M3374N (antibody, V domains shown, mouse Fc format; also called H2M3374N) VH: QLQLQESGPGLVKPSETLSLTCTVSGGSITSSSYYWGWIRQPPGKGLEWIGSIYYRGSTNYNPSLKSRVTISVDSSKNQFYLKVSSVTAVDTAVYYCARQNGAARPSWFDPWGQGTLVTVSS VL: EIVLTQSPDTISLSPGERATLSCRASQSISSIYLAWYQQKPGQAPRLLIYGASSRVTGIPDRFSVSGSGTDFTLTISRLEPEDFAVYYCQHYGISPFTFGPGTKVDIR", "pIC50": 10.11}

Hey, quick one: what's pIC50 for each of these?
1. H2M3373N (antibody, V domains shown, mouse Fc (H2M prefix; isotype not spelled out)) VH: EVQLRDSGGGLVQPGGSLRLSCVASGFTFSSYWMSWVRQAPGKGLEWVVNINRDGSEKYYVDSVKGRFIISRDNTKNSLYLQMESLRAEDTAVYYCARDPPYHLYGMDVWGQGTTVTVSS VL: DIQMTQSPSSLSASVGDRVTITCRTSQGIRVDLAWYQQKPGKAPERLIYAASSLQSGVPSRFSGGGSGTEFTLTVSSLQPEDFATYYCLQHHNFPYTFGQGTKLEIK
2. H4H3105S (antibody, human IgG4, V domains shown, human IgG4 Fc (H4H prefix)) VH: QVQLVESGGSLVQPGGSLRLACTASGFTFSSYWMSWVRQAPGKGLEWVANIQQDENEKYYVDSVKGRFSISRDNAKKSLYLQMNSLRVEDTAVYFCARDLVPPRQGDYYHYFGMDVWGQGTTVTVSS VL: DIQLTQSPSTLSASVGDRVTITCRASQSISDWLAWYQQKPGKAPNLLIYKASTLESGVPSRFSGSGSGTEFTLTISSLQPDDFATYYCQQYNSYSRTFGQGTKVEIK

9.05
9.80
